Here the recorded Initial purity is given for each entry.
test protocol: Study on the stability of caspofungin with low solvent residue and hyposaline (storage, then HPLC purity)
Assay type: physicochemical
test settings: HPLC purity before storage
readout name: Initial purity (%)

[
  {
    "molecule": "CCC(C)CC(C)CCCCCCCCC(=O)N[C@H]1C[C@@H](O)[C@@H](NCCN)NC(=O)[C@@H]2[C@@H](O)CCN2C(=O)[C@H]([C@H](O)CCN)NC(=O)[C@H]([C@H](O)[C@@H](O)c2ccc(O)cc2)NC(=O)[C@@H]2C[C@@H](O)CN2C(=O)[C@H]([C@@H](C)O)NC1=O (single isomer, unassigned) [Example 6, caspofungin diacetate]",
    "reported result": 99.92
  },
  {
    "molecule": "CCC(C)CC(C)CCCCCCCCC(=O)N[C@H]1C[C@@H](O)[C@@H](NCCN)NC(=O)[C@@H]2[C@@H](O)CCN2C(=O)[C@H]([C@H](O)CCN)NC(=O)[C@H]([C@H](O)[C@@H](O)c2ccc(O)cc2)NC(=O)[C@@H]2C[C@@H](O)CN2C(=O)[C@H]([C@@H](C)O)NC1=O (single isomer, unassigned) [Example 9, caspofungin diacetate]",
    "reported result": 99.86
  },
  {
    "molecule": "CCC(C)CC(C)CCCCCCCCC(=O)N[C@H]1C[C@@H](O)[C@@H](NCCN)NC(=O)[C@@H]2[C@@H](O)CCN2C(=O)[C@H]([C@H](O)CCN)NC(=O)[C@H]([C@H](O)[C@@H](O)c2ccc(O)cc2)NC(=O)[C@@H]2C[C@@H](O)CN2C(=O)[C@H]([C@@H](C)O)NC1=O (single isomer, unassigned) [Example 3, caspofungin diacetate]",
    "reported result": 99.90
  },
  {
    "molecule": "CCC(C)CC(C)CCCCCCCCC(=O)N[C@H]1C[C@@H](O)[C@@H](NCCN)NC(=O)[C@@H]2[C@@H](O)CCN2C(=O)[C@H]([C@H](O)CCN)NC(=O)[C@H]([C@H](O)[C@@H](O)c2ccc(O)cc2)NC(=O)[C@@H]2C[C@@H](O)CN2C(=O)[C@H]([C@@H](C)O)NC1=O (single isomer, unassigned) [Example 5, caspofungin diacetate]",
    "reported result": 99.91
  }
]

* * *

test protocol: Study on the stability of caspofungin with low solvent residue and hyposaline (storage, then HPLC purity)
Type: physicochemical
test settings: HPLC purity after storing at −25~−20° C. for 30 days
readout name: Purity (%)

[
  {
    "compound": "CCC(C)CC(C)CCCCCCCCC(=O)N[C@H]1C[C@@H](O)[C@@H](NCCN)NC(=O)[C@@H]2[C@@H](O)CCN2C(=O)[C@H]([C@H](O)CCN)NC(=O)[C@H]([C@H](O)[C@@H](O)c2ccc(O)cc2)NC(=O)[C@@H]2C[C@@H](O)CN2C(=O)[C@H]([C@@H](C)O)NC1=O (single isomer, unassigned) [Example 9, caspofungin diacetate]",
    "readout name": "Purity",
    "reported result": 99.86
  },
  {
    "compound": "CCC(C)CC(C)CCCCCCCCC(=O)N[C@H]1C[C@@H](O)[C@@H](NCCN)NC(=O)[C@@H]2[C@@H](O)CCN2C(=O)[C@H]([C@H](O)CCN)NC(=O)[C@H]([C@H](O)[C@@H](O)c2ccc(O)cc2)NC(=O)[C@@H]2C[C@@H](O)CN2C(=O)[C@H]([C@@H](C)O)NC1=O (single isomer, unassigned) [Example 7, caspofungin diacetate]",
    "readout name": "Purity",
    "reported result": 99.90
  },
  {
    "compound": "CCC(C)CC(C)CCCCCCCCC(=O)N[C@H]1C[C@@H](O)[C@@H](NCCN)NC(=O)[C@@H]2[C@@H](O)CCN2C(=O)[C@H]([C@H](O)CCN)NC(=O)[C@H]([C@H](O)[C@@H](O)c2ccc(O)cc2)NC(=O)[C@@H]2C[C@@H](O)CN2C(=O)[C@H]([C@@H](C)O)NC1=O (single isomer, unassigned) [Example 6, caspofungin diacetate]",
    "readout name": "Purity",
    "reported result": 99.92
  },
  {
    "compound": "CCC(C)CC(C)CCCCCCCCC(=O)N[C@H]1C[C@@H](O)[C@@H](NCCN)NC(=O)[C@@H]2[C@@H](O)CCN2C(=O)[C@H]([C@H](O)CCN)NC(=O)[C@H]([C@H](O)[C@@H](O)c2ccc(O)cc2)NC(=O)[C@@H]2C[C@@H](O)CN2C(=O)[C@H]([C@@H](C)O)NC1=O (single isomer, unassigned) [Example 5, caspofungin diacetate]",
    "readout name": "Purity",
    "reported result": 99.91
  },
  {
    "compound": "CCC(C)CC(C)CCCCCCCCC(=O)N[C@H]1C[C@@H](O)[C@@H](NCCN)NC(=O)[C@@H]2[C@@H](O)CCN2C(=O)[C@H]([C@H](O)CCN)NC(=O)[C@H]([C@H](O)[C@@H](O)c2ccc(O)cc2)NC(=O)[C@@H]2C[C@@H](O)CN2C(=O)[C@H]([C@@H](C)O)NC1=O (single isomer, unassigned) [Example 8, caspofungin diacetate]",
    "readout name": "Purity",
    "reported result": 99.88
  },
  {
    "compound": "CCC(C)CC(C)CCCCCCCCC(=O)N[C@H]1C[C@@H](O)[C@@H](NCCN)NC(=O)[C@@H]2[C@@H](O)CCN2C(=O)[C@H]([C@H](O)CCN)NC(=O)[C@H]([C@H](O)[C@@H](O)c2ccc(O)cc2)NC(=O)[C@@H]2C[C@@H](O)CN2C(=O)[C@H]([C@@H](C)O)NC1=O (single isomer, unassigned) [Example 3, caspofungin diacetate]",
    "readout name": "Purity",
    "reported result": 99.90
  },
  {
    "compound": "CCC(C)CC(C)CCCCCCCCC(=O)N[C@H]1C[C@@H](O)[C@@H](NCCN)NC(=O)[C@@H]2[C@@H](O)CCN2C(=O)[C@H]([C@H](O)CCN)NC(=O)[C@H]([C@H](O)[C@@H](O)c2ccc(O)cc2)NC(=O)[C@@H]2C[C@@H](O)CN2C(=O)[C@H]([C@@H](C)O)NC1=O (single isomer, unassigned) [Example 4, caspofungin diacetate]",
    "readout name": "Purity",
    "reported result": 99.90
  }
]

* * *

test protocol: Study on the stability of caspofungin with low solvent residue and hyposaline (storage, then HPLC purity)
Assay type: physicochemical
test settings: stored at −25-20° C. for 30 days
readout name: stability of the samples (degradation by HPLC analysis)

[
  {
    "compound": "CCC(C)CC(C)CCCCCCCCC(=O)N[C@H]1C[C@@H](O)[C@@H](NCCN)NC(=O)[C@@H]2[C@@H](O)CCN2C(=O)[C@H]([C@H](O)CCN)NC(=O)[C@H]([C@H](O)[C@@H](O)c2ccc(O)cc2)NC(=O)[C@@H]2C[C@@H](O)CN2C(=O)[C@H]([C@@H](C)O)NC1=O (single isomer, unassigned) [Example 5, caspofungin diacetate]",
    "reported result": "no degradation occured"
  },
  {
    "compound": "CCC(C)CC(C)CCCCCCCCC(=O)N[C@H]1C[C@@H](O)[C@@H](NCCN)NC(=O)[C@@H]2[C@@H](O)CCN2C(=O)[C@H]([C@H](O)CCN)NC(=O)[C@H]([C@H](O)[C@@H](O)c2ccc(O)cc2)NC(=O)[C@@H]2C[C@@H](O)CN2C(=O)[C@H]([C@@H](C)O)NC1=O (single isomer, unassigned) [Example 7, caspofungin diacetate]",
    "reported result": "no degradation occured"
  },
  {
    "compound": "CCC(C)CC(C)CCCCCCCCC(=O)N[C@H]1C[C@@H](O)[C@@H](NCCN)NC(=O)[C@@H]2[C@@H](O)CCN2C(=O)[C@H]([C@H](O)CCN)NC(=O)[C@H]([C@H](O)[C@@H](O)c2ccc(O)cc2)NC(=O)[C@@H]2C[C@@H](O)CN2C(=O)[C@H]([C@@H](C)O)NC1=O (single isomer, unassigned) [Example 8, caspofungin diacetate]",
    "reported result": "no degradation occured"
  }
]

* * *

test protocol: Study on the stability of caspofungin with low solvent residue and hyposaline (storage, then HPLC purity)
Assay type: physicochemical
test settings: HPLC purity before storage
readout name: Initial purity (%)

[
  {
    "compound": "CCC(C)CC(C)CCCCCCCCC(=O)N[C@H]1C[C@@H](O)[C@@H](NCCN)NC(=O)[C@@H]2[C@@H](O)CCN2C(=O)[C@H]([C@H](O)CCN)NC(=O)[C@H]([C@H](O)[C@@H](O)c2ccc(O)cc2)NC(=O)[C@@H]2C[C@@H](O)CN2C(=O)[C@H]([C@@H](C)O)NC1=O (single isomer, unassigned) [Example 8, caspofungin diacetate]",
    "reported result": 99.88
  },
  {
    "compound": "CCC(C)CC(C)CCCCCCCCC(=O)N[C@H]1C[C@@H](O)[C@@H](NCCN)NC(=O)[C@@H]2[C@@H](O)CCN2C(=O)[C@H]([C@H](O)CCN)NC(=O)[C@H]([C@H](O)[C@@H](O)c2ccc(O)cc2)NC(=O)[C@@H]2C[C@@H](O)CN2C(=O)[C@H]([C@@H](C)O)NC1=O (single isomer, unassigned) [Example 7, caspofungin diacetate]",
    "reported result": 99.90
  },
  {
    "compound": "CCC(C)CC(C)CCCCCCCCC(=O)N[C@H]1C[C@@H](O)[C@@H](NCCN)NC(=O)[C@@H]2[C@@H](O)CCN2C(=O)[C@H]([C@H](O)CCN)NC(=O)[C@H]([C@H](O)[C@@H](O)c2ccc(O)cc2)NC(=O)[C@@H]2C[C@@H](O)CN2C(=O)[C@H]([C@@H](C)O)NC1=O (single isomer, unassigned) [Example 4, caspofungin diacetate]",
    "reported result": 99.90
  }
]
